# targetSystem: ScPex13
# experimentalDetails: SPOT peptide array binding signal intensity (averaged, normalized) (arbitrary units (background-subtracted, floor 0; scale differs between SH3 domains)); higher = stronger binding of the SH3 domain to the peptide
valueType: SPOT peptide array binding signal intensity
Lab note: write the figure by itself, no unit.

Example results:
INPUT: Look at this binder and give its reported SPOT peptide array binding signal intensity. "AERNYAPRLPRRETS"
OUTPUT: 252

INPUT: Query "QRIRKIPGIPLMSVG" next
OUTPUT: 408

INPUT: Query "LPPPPPPPPPPPLPQ" next
OUTPUT: 41.8

Continuing:
INPUT: Look at this binder and give its reported SPOT peptide array binding signal intensity. "RSVKRPRRAPRPVVS"
OUTPUT: 2.75

Values compiled from the supplement of paper PMC4466140.
